Cited source: patent US20090170880A1

- RUN DESCRIPTION: Brain penetration study, temozolomide i.v. in wild-type and knockout mice
- Type: in vivo
- STUDY CONDITIONS: FVB, mouse, plasma, iv; mice, i.v. 50 mg/kg; read-out: plasma half-life, first-order elimination (converted)
REPORTED PROPERTY: half-life (min)
State the answer as a number, implicitly in min.

Sure, the documented half-life for Cn1nnc2c(C(N)=O)ncn2c1=O [temozolomide] is 42

---

- RUN DESCRIPTION: Plasma exposure of oral temozolomide in mice
- Type: in vivo
- STUDY CONDITIONS: mouse, 100 mg/kg, Wild-type mice, read-out: AUC0-7 h, plasma
REPORTED PROPERTY: AUC(0-t) (µg·h/mL)
I only need the number, in µg·h/mL, no unit after it.

Recorded AUC(0-t) (compound Cn1nnc2c(C(N)=O)ncn2c1=O [temozolomide] ): 154

---

- RUN DESCRIPTION: Brain penetration study, temozolomide i.v. in wild-type and knockout mice
- Type: in vivo
- STUDY CONDITIONS: FVB, mouse, plasma, iv, 50 mg/kg, Bcrp1 knockout mice, i.v. 50 mg/kg; read-out: AUC0-7 h plasma
REPORTED PROPERTY: AUC(0-t) (ng·h/mL)
Value expressed in ng·h/mL; do not type the unit.

The recorded AUC(0-t) for entry Cn1nnc2c(C(N)=O)ncn2c1=O [temozolomide] equals 63000

---

- RUN DESCRIPTION: Stability of temozolomide in culture medium
- Assay type: physicochemical
- STUDY CONDITIONS: culture medium at 37° C.
REPORTED PROPERTY: half-life

// half-life lookup, compound = Cn1nnc2c(C(N)=O)ncn2c1=O [temozolomide] , result: ~30 min
